- assayNotes: Dark toxicity in human A549 cells assessed as reduction in cell viability up to 10 uM measured after 24 hrs by MTT assay
- Assay type: cell-based
- measurementSetup: a549, 24 h
observedProperty: Activity

Recorded Activity, per entry:
INSERT INTO assay_data (smilestext, observedresult) VALUES
  ('Cc1cccn2c1cc1c3ccccc3nc(-c3ccco3)c12', 'Non-Toxic'),
  ('Cc1cccn2c1cc1c3ccccc3nc(-c3cccs3)c12', 'Non-Toxic'),
  ('Cc1cccn2c1cc1c3ccccc3nc(-c3ccc(Cl)o3)c12', 'Non-Toxic'),
  ('Brc1ccc2cc3c4ccccc4nc(-c4ccco4)c3n2c1', 'Toxic'),
  ('c1csc(-c2nc3ccccc3c3cc4ccccn4c23)c1', 'Non-Toxic');

# evaluate next
### Prompt Using the record for Clc1ccc(-c2nc3ccccc3c3cc4ccccn4c23)s1 , report its Activity.
### Response Non-Toxic
